Experiment: ATG_M_19_CIS: Attagene CIS-FACTORIAL HepG2 Assay for M19 Transcription Factor (Internal Marker) (AID 2282939)
Settings: HepG2 Attagene CIS-FACTORIAL M19 internal marker reporter; actives raise or lower the signal
Activity calls are given as the source filed them. How the source made its calls: active means hit-call score of the fitted dose curve at least 0.9, where 1 is the maximum; inactive means score below 0.9.
The reply should be one of these categories: yes (active), no (inactive)

// query Called result for Clc1nc(C(Cl)(Cl)Cl)c(Cl)c(Cl)c1Cl
// result no

// query Called result for COc1ccc(Nc2ccccc2)c(C)c1
// result no

// query Called result for CCc1c(C)cc(N)c(CC)c1N
// result no

// query Called result for CC(C)OP(=O)(CP(=O)(OC(C)C)OC(C)C)OC(C)C
// result no

// query Called result for CC[C@]12CCCN3CCc4c(n(c5ccccc45)[C@@](O)(C(=O)OC)C1)[C@@H]32
// result no

// query Called result for CC1=CCC2C(C1)C2(C)C (stereo not given)
// result no

// query Called result for O=C(O)c1ccc([N+](=O)[O-])cc1
// result no

// query Called result for CCCCCCCCC=O
// result no

// query Called result for CC(C)=CCO
// result no

// query Called result for Nc1cc(Cl)c(O)c(Cl)c1
// result no

// query Called result for CCOC(=S)SSC(=S)OCC
// result no

// query Called result for OC1OC[C@@H](O)[C@H](O)[C@H]1O (stereo not given in full)
// result no

// query Called result for Sc1nc(S)nc(S)n1
// result no

// query Called result for O=C=NC1CCC(CC2CCC(N=C=O)CC2)CC1 (stereo not given)
// result yes

// query Called result for CC(C)(Oc1ccc(CCNC(=O)c2ccc(Cl)cc2)cc1)C(=O)O
// result no

// query Called result for CC(=O)C=CC1=C(C)CCCC1(C)C
// result no

// query Called result for ClCCCl
// result no

// query Called result for NNc1nc(-c2ccc(N)cc2)cs1
// result no

// query Called result for CC(C)(N)CO
// result no

// query Called result for COc1cc(C=O)ccc1OC(=O)C(C)C
// result no

// query Called result for CCCCO
// result no

// query Called result for CC1(CO)CN(c2ccccc2)NC1=O (stereo not given)
// result no

// query Called result for CCCCCCCCCCCCCCCC(=O)O
// result no

// query Called result for CC(C)Oc1ccccc1O
// result no

// query Called result for C=CCOC(=O)CCC1CCCCC1
// result no

// query Called result for CCCC[n+]1ccccc1
// result no

// query Called result for COC(C(=O)O)c1ccccc1 (stereo not given)
// result no

// query Called result for CC(C)[C@@H]1CC[C@@H](C)CC1=O
// result no

// query Called result for CCC(=O)OCCC(C)CCC=C(C)C (stereo not given)
// result no

// query Called result for O=C1C(c2[nH]c3ccc(S(=O)(=O)O)cc3c2O)=Nc2ccc(S(=O)(=O)O)cc21
// result no

// query Called result for C=C(C)[C@@H]1CC[C@@H](C)C[C@@H]1O
// result no

// query Called result for CC(C)c1cccc(O)c1
// result no

// query Called result for CC(O)C(C)O (stereo not given)
// result no

// query Called result for CC(CCO)CCCC(C)(C)O (stereo not given)
// result no

// query Called result for CCCCCC=CCC(=O)OC
// result no

// query Called result for C=C(C)C(=O)O[C@H]1C[C@@H]2CC[C@@]1(C)C2(C)C
// result no

// query Called result for C#C[C@]1(O)CC[C@H]2[C@@H]3CCC4=Cc5oncc5C[C@]4(C)[C@H]3CC[C@@]21C
// result no

// query Called result for CCC(C)(O)CCC=C(C)C (stereo not given)
// result no

// query Called result for CCCCC/C=C/C=C/C=O
// result no

// query Called result for O=S(=O)(O)c1cccc2c(S(=O)(=O)O)cccc12
// result no

// query Called result for COc1ccc(Cl)cc1C
// result no

// query Called result for CC(=O)OCc1ccc2c(c1)OCO2
// result no

// query Called result for O=C1CCCCCCCCCCOCCCCO1
// result no

// query Called result for Cc1cc(C2(c3cc(C)c(O)cc3C)OS(=O)(=O)c3ccccc32)c(C)cc1O
// result no

// query Called result for CCCCNC(=O)NS(=O)(=O)c1ccc(N)cc1
// result no

// query Called result for CC(C)(CO)[N+](=O)[O-]
// result no

// query Called result for CC(=O)OCCOC(C)=O
// result no

// query Called result for CCCCCCCCCCCCCC(=O)O
// result no

// query Called result for CC(=O)O[C@]1(C(C)=O)CC[C@H]2[C@@H]3C[C@H](C)C4=CC(=O)CC[C@]4(C)[C@H]3CC[C@@]21C
// result no

// query Called result for CCCC1CCC(=O)O1 (stereo not given)
// result no

// query Called result for CCN(CC)CCOC(=O)c1ccc(N)cc1
// result no

// query Called result for CC1=CCC(O)(C(C)C)CC1 (stereo not given)
// result no

// query Called result for C=CC(=O)OCCOCCOCC
// result no

// query Called result for CC(=O)O[C@H](CC(=O)[O-])C[N+](C)(C)C
// result no

// query Called result for CCCC(=O)c1cc(O)c(O)cc1O
// result no

// query Called result for Cc1ccc(S)cc1
// result no

// query Called result for Cc1cccc(C)c1[N+](=O)[O-]
// result no

// query Called result for Cc1c(N(C)C)c(=O)n(-c2ccccc2)n1C
// result no

// query Called result for CC(=O)OCC=Cc1ccccc1
// result no

// query Called result for NC(=O)c1ccccc1Cl
// result no
